tested_system: BACE1 enzyme (Homo sapiens, UniProt P56817)
Construct: transfected with a soluble BACE construct (BACE1deltaTM96His); His (C)
Sequence (P56817 46-457 limits assumed): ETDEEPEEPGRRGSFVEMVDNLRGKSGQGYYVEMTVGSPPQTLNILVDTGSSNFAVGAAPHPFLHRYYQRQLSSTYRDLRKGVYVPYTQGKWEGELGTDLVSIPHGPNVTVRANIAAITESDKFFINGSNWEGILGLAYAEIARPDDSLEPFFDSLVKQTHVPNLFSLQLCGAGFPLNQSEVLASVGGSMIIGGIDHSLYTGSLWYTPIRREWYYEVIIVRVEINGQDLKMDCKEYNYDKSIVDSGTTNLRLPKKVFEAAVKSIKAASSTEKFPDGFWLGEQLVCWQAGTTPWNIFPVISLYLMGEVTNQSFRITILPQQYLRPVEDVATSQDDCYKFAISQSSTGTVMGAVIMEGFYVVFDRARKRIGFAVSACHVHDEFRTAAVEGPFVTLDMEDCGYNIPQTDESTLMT
protocol_notes: BACE1 Cell-Free Assay (fluorescence polarization, cleavage of synthetic APP substrate)
reported_conditions: geometric mean of 2-4 determinations unless otherwise indicated (b: ≧5 determinations; c: single determination); 0.1 nM BACE1, 150 nM peptide substrate, pH 4.5, 3 hours at 37° C.
From the text: Beta-secretase (BACE) is one of the enzymes involved in the generation of the amyloid beta peptide found in the amyloid plaques of Alzheimer's disease patients. This assay measures the inhibition of the beta-secretase enzyme as it cleaves a non-native peptide. […]
Consider the following compounds and their measured pIC50 readings.
By convention, pIC50 is the negative base-10 log of a molar concentration.

// worked examples, pIC50 included
In [3]: df
Out[3]:
                                   compound  reported_endpoint  meas_value
0  C[C@H]1[C@](C)(c2nc(NC(=O)c3ccc(OC(F)F)cn3)cs2)N=C(N)N(C)S1(=O)=O (single isomer, unassigned)              pIC50        4.74
1  CC[C@H]1[C@@](C)(c2nc(NC(=O)c3ccc(OC(F)F)cn3)cs2)N=C(N)N(C)S1(=O)=O              pIC50        6.70
2  CN1C(N)=N[C@](C)(c2nc(NC(=O)c3ccn(C(F)F)n3)cs2)CS1(=O)=O              pIC50        7.72
3  CN1C(N)=N[C@@](C)(c2nc(NC(=O)c3ccc(OC(F)F)cn3)cs2)C(C)(C)S1(=O)=O (single isomer, unassigned)              pIC50        5.36
4  CN1C(N)=N[C@](C)(c2nc(NC(=O)c3ccc(OC(F)F)cn3)cs2)C(C)(C)S1(=O)=O (single isomer, unassigned)              pIC50        7.11
5  CC[C@@H]1[C@@](C)(c2nc(NC(=O)c3ccc(OC(F)F)cn3)cs2)N=C(N)N(C)S1(=O)=O              pIC50        6.43

Given the compound CN1C(N)=N[C@](C)(c2nc(NC(=O)c3ccc(OC(F)F)cn3)cs2)[C@H](C2CC2)S1(=O)=O (single isomer, unassigned) , what is its reported pIC50?
7.29

Given the compound CN1C(N)=N[C@](C)(c2nc(NC(=O)c3ccc(OC(F)F)cn3)cs2)[C@@H](C2CC2)S1(=O)=O (single isomer, unassigned) , what is its reported pIC50?
6.99

Given the compound `Cc1cc(OC(F)F)cnc1C(=O)Nc1csc([C@]2(C)CS(=O)(=O)N(C)C(N)=N2)n1` , what is its reported pIC50?
7.54

Given the compound C[C@@H]1[C@@](C)(c2nc(NC(=O)c3ccc(OC(F)F)cn3)cs2)N=C(N)N(C)S1(=O)=O (single isomer, unassigned) , what is its reported pIC50?
6.87

Given the compound CN1C(N)=NC(C)(c2nc(NC(=O)c3ccc(OC(F)F)cn3)cs2)C(C)(C)S1(=O)=O (centres unmarked) , what is its reported pIC50?
6.73

Given the compound `CN1C(N)=N[C@](C)(c2nc(NC(=O)c3ncc(OC(F)F)cc3Cl)cs2)CS1(=O)=O` , what is its reported pIC50?
7.64

Given the compound `CN1C(N)=N[C@](C)(c2nc(NC(=O)c3coc(CF)n3)cs2)CS1(=O)=O` , what is its reported pIC50?
7.96

Given the compound CN1C(N)=N[C@@](C)(c2nc(NC(=O)c3ccc(OC(F)F)cn3)cs2)[C@H](C2CC2)S1(=O)=O (single isomer, unassigned) , what is its reported pIC50?
4.51

Given the compound `CN1C(N)=N[C@](C)(c2nc(NC(=O)c3ccc(Cl)cn3)cs2)CS1(=O)=O` , what is its reported pIC50?
7.38

Given the compound C[C@@H]1[C@](C)(c2nc(NC(=O)c3ccc(OC(F)F)cn3)cs2)N=C(N)N(C)S1(=O)=O (single isomer, unassigned) , what is its reported pIC50?
4.47

---

tested_system: BACE1 enzyme (Homo sapiens, UniProt P56817)
Construct: transfected with a soluble BACE construct (BACE1deltaTM96His); His (C)
protocol_notes: BACE1 Cell-Free Assay (fluorescence polarization, cleavage of synthetic APP substrate)
reported_conditions: geometric mean of 2-4 determinations unless otherwise indicated (b: ≧5 determinations; c: single determination); 0.1 nM BACE1, 150 nM peptide substrate, pH 4.5, 3 hours at 37° C.
reported_endpoint: pIC50
By convention, pIC50 is the negative base-10 log of a molar concentration.

// worked examples, pIC50 included
In [3]: df
Out[3]:
                                 cpd_smiles                             tested_system  reported_endpoint  meas_value
0  CN1C(N)=N[C@](C)(c2nc(NC(=O)c3ccc(OC(F)F)cn3)cs2)CS1(=O)=O  BACE1 enzyme (Homo sapiens, UniProt P56817)              pIC50        7.22
1  CC#CCOc1cnc(C(=O)Nc2csc([C@]3(C)CS(=O)(=O)N(C)C(N)=N3)n2)cn1  BACE1 enzyme (Homo sapiens, UniProt P56817)              pIC50        7.89
2  CN1C(N)=N[C@](C)(c2nc(NC(=O)c3cnc(OCC(C)(F)F)cn3)cs2)CS1(=O)=O  BACE1 enzyme (Homo sapiens, UniProt P56817)              pIC50        6.87

Given the compound `CC[C@@H]1[C@](C)(c2nc(NC(=O)c3ccc(OC(F)F)cn3)cs2)N=C(N)N(C)S1(=O)=O` , what is its reported pIC50?
5.41

The reported measurements were obtained from patent US9611264B1.
